Tested on: Enterococcus sp.
assay protocol: in vitro antibacterial evaluation, MIC by broth dilution
Assay type: cell-based
measurement parameters: broth dilution, 18 hours at 35° C.
# if measured MIC Enterococcus faecium (GC 4557) < 4 µg/mL: Y  # else: N

COc1ccc2cc(C3OCC4OC(OC5C(CO)OC(Oc6ccc(CC7NC(=O)C(C(C)c8ccccc8)NC(=O)CNC(=O)C(CO)NC(=O)C(CC8CNC(=N)N8C8OC(CO)C(O)C(O)C8O)NC(=O)C(CC8CNC(=N)N8)NC7=O)cc6)C(O)C5O)C(O)C(O)C4O3)ccc2c1 (stereo not shown) | N
CCCCCCCN1CC(C(O)C2NC(=O)C(C(O)C3CNC(=N)N3)NC(=O)C(Cc3ccc(OC4OC(CO)C(OC5OC6COC7(OC6C(O)C5O)C5CC6CC(C5)CC7C6)C(O)C4O)cc3)NC(=O)C(C(C)c3ccccc3)NC(=O)CNC(=O)C(CO)NC2=O)N(C2OC(CO)C(O)C(O)C2O)C1=N (stereo not shown) | Y
CN=C1N(C)CC(C(O)C2NC(=O)C(Cc3ccc(OC4OC(CO)C(OC5OC6COC7(OC6C(O)C5O)C5CC6CC(C5)CC7C6)C(O)C4O)cc3)NC(=O)C(C(C)c3ccccc3)NC(=O)CNC(=O)C(CO)NC(=O)C(C(O)C3CN(C)C(=NC)N3C3OC(CO)C(O)C(O)C3O)NC2=O)N1C (stereo not shown) | N
N=C1NCC(C(O)C2NC(=O)C(Cc3ccc(OC4OC(CO)C(OC5OC6COC(Cc7ccccc7)OC6C(O)C5O)C(O)C4O)cc3)NC(=O)C(CC3CCCCC3)NC(=O)CNC(=O)C(CO)NC(=O)C(C(O)C3CNC(=N)N3C3OC(CO)C(O)C(O)C3O)NC2=O)N1 (stereo not shown) | Y
